These measurements were taken from patent US20250197488A1.

assay-system: T1, human IL-11 (AAH12506.1, Pro22-Leu199) (human, UniProt P20809 22-199)
T1 construct: The range Pro22-Leu199 counts on AAH12506.1; The Octet runs say only 'human IL-11'; also called hIL-11
T1 chain: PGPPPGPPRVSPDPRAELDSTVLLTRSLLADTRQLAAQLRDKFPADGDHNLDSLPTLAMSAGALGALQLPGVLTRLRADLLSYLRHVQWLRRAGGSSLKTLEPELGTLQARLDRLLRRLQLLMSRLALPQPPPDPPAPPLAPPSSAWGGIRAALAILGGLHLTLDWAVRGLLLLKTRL
test-protocol: BLI (Octet), antibody captured, human IL-11 in solution
endpoint-name: koff (s⁻¹)
Express it in s⁻¹; write the number only.

Illustrative cases are given below, each with its answer.
Look up koff for this binder: hz18A10-VH + hz18A10-VLm10 (antibody, V domains shown, Constant regions not restated for this antibody) VH: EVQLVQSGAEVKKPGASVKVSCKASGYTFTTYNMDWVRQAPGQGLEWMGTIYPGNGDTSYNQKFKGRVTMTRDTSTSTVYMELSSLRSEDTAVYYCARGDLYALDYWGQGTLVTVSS VL: DIQMTQSPSSLSASVGDRVTITCKASQSVSNDLAWYQQKPGKAPKLLIYSASNRYTGVPSRFSGSGSGTDFTFTISSLQPEDIATYYCQHDYSSPYTFGQGTKLEIK
0.00295

Now the same for hz18A10-VH + hz18A10-VLm4 (antibody, V domains shown, Constant regions not restated for this antibody) VH: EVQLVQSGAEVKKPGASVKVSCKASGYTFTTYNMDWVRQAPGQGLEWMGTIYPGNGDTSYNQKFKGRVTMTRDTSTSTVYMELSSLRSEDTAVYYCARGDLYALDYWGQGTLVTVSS VL: DIQMTQSPSSLSASVGDRVTITCKASQFVSNDVAWYQQKPGKAPKLLIYSASNRYTGVPSRFSGSGSGTDFTFTISSLQPEDIATYYCQHDYSSPYTFGQGTKLEIK
0.00237

In the following, a different binder is considered.
Look up koff for this binder: hz18A10-VH + hz18A10-VLm1 (antibody, V domains shown, Constant regions not restated for this antibody) VH: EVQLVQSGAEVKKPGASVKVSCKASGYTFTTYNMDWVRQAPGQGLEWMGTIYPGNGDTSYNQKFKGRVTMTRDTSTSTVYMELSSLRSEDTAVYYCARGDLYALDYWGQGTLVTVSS VL: DIQMTQSPSSLSASVGDRVTITCKASKSVSNDVAWYQQKPGKAPKLLIYSASNRYTGVPSRFSGSGSGTDFTFTISSLQPEDIATYYCQHDYSSPYTFGQGTKLEIK
0.00331
